- Test system: L1210 leukemia ip in BDF1 mice, survival T/C
- assay.overview: NCI In Vivo Anticancer Drug Screen. Data for tumor model L1210 Leukemia (intraperitoneal) in B6D2F1 (BDF1) mice
- conditions.used: endpoint: mean survival time; dose: 75.0 mg/kg/injection; schedule: Q01DX001 (ip); vehicle: other; higher = longer survival
Toxic doses and inconclusive results are not listed.
Hi there, I'd appreciate the recorded T/C for every entry that follows.

**Q:** Name the recorded T/C for O=C1C2C3CC4C2C(=O)C2C1C3C42 (stereo not drawn) .
**A:** 101 % of control

**Q:** Then CC(Cc1ccccc1)Nc1ccccn1 (stereo not drawn) ?
**A:** 97 % of control

**Q:** Then CCCC1(CC)C(=O)NC(=S)N(C)C1=O (stereo not drawn) ?
**A:** 94 % of control

meta.source: PubChem BioAssay AID248
